B1: Retinoic acid receptor RXR-alpha, residues 132 to 208; numbered along this chain, P19793 (parent)
chain: KHICAICGDRSSGKHYGVYSCEGCKGFFKRTVRKDLTYTCRDNKDCLIDKRQRNRCQYCRYQKCLAMGMKREAVQEE

Variants of: B1
Procedure text: abundance fitness (aPCA) (normalised: wild type 0, dead -1); higher = more abundant; growth selection in yeast, the domain comes from the species named
Test settings: Homo sapiens
Use abundance fitness to assign classes; range list: b0 = under -0.2, b1 = from -0.2 up to -0.007, b2 = -0.007 and over

Band for the recorded abundance fitness of KHICAICGDRGSGKHYGVYSCEGCKGFFKRTVRKDLTYTCRDNKDCLIDKRQRNRCQYCRYQKCLAMGMKREAVQEE [S11G] ?
b1

Band for the recorded abundance fitness of KHICAICGDRSSGKHYGVYSCEGQKGFFKRTVRKDLTYTCRDNKDCLIDKRQRNRCQYCRYQKCLAMGMKREAVQEE [C24Q] ?
b0

Band for the recorded abundance fitness of KHICAICGDRSSGKHYGVYSCPGCKGFFKRTVRKDLTYTCRDNKDCLIDKRQRNRCQYCRYQKCLAMGMKREAVQEE [E22P] ?
b1

Band for the recorded abundance fitness of KHICAICGDRSSGKHYGVYSCEGCKGFFKETVRKDLTYTCRDNKDCLIDKRQRNRCQYCRYQKCLAMGMKREAVQEE [R30E] ?
b1

Band for the recorded abundance fitness of KHICAICGDRSSGKHYGVYSCEGCKGFFKRTVRKDLTYTCRDNKDCLIKKRQRNRCQYCRYQKCLAMGMKREAVQEE [D49K] ?
b2

Band for the recorded abundance fitness of KHIVAICGDRSSGKHYGVYSCEGCKGFFKRTVRKDLTYTCRDNKDCLIDKRQRNRCQYCRYQKCLAMGMKREAVQEE [C4V] ?
b0

Band for the recorded abundance fitness of KHICAICGDRSSGKHYGVYICEGCKGFFKRTVRKDLTYTCRDNKDCLIDKRQRNRCQYCRYQKCLAMGMKREAVQEE [S20I] ?
b2

Band for the recorded abundance fitness of KHITAICGDRSSGKHYGVYSCEGCKGFFKRTVRKDLTYTCRDNKDCLIDKRQRNRCQYCRYQKCLAMGMKREAVQEE [C4T] ?
b0

Band for the recorded abundance fitness of KHICAICGDRSSGKHYGVYSCEGCKVFFKRTVRKDLTYTCRDNKDCLIDKRQRNRCQYCRYQKCLAMGMKREAVQEE [G26V] ?
b2
